These entries and their values trace back to ChEMBL document CHEMBL2321717.

Here's a batch of compounds along with measured pIC50 for Estrogen receptor beta (Homo sapiens).
API: returns pIC50 as number; meaning -log10 of concentration in mol/L.

# input For CC(C)(C)OC(=O)N1CCN(c2ccc(C#CCCCC[C@@H]3Cc4cc(O)ccc4[C@H]4CC[C@]5(C)[C@@H](O)CC[C@H]5[C@H]34)cc2)CC1 , what is its reported pIC50?
# output 6.36

# input For CCOC(=O)C(Cc1ccc(C#CCCCC[C@@H]2Cc3cc(O)ccc3[C@H]3CC[C@]4(C)[C@@H](O)CC[C@H]4[C@H]23)cc1)C(=O)OCC , what is its reported pIC50?
# output 6.82
